Assay: ATG_CMV_CIS: Attagene CIS-FACTORIAL HepG2 Assay for human CMV (Internal Marker) (AID 2282928);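 also: endpoint acts as a background internal control marker rather than a target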
Details: HepG2 CMV promoter reporter, transcription factor profiling; actives raise or lower the signal
Active and inactive are the calls of the source. The calls were made as follows: active = hit-call score of the fitted dose curve at least 0.9, where 1 is the maximum; inactive = score below 0.9.
Possible outcomes: active, inactive

MOLECULE: C=C(C)[C@@H]1CCC2=CCC[C@@H](C)[C@]2(C)C1
ANSWER LABEL: active
--
MOLECULE: Cc1ccc2c(c1)C(=O)c1ccccc1C2=O
ANSWER LABEL: active
--
MOLECULE: CCCCC(CC)COC(=O)c1ccccc1 (stereo not drawn)
ANSWER LABEL: inactive
--
MOLECULE: O=C(Nc1cccc(C(F)(F)F)c1)c1cc(Br)cc(Br)c1O
ANSWER LABEL: active
--
MOLECULE: ON(Cc1ccccc1)Cc1ccccc1
ANSWER LABEL: inactive
--
MOLECULE: C/C=C\C/C=C/CCCCCCCCOC(C)=O
ANSWER LABEL: inactive
--
MOLECULE: COCC(C)N (stereo not drawn)
ANSWER LABEL: inactive
--
MOLECULE: COc1c2ccoc2cc2oc(=O)ccc12
ANSWER LABEL: inactive
--
MOLECULE: OCCCS
ANSWER LABEL: inactive
--
MOLECULE: CC(C)CCCC(C)CC=O (stereo not drawn)
ANSWER LABEL: inactive
--
MOLECULE: CCCCC(CC)COC(=O)c1ccccc1O (stereo not drawn)
ANSWER LABEL: inactive
--
MOLECULE: CC(C)=CCC[C@H](C)CCO
ANSWER LABEL: inactive
--
MOLECULE: O=C(OCC1CCC2OC2C1)C1CCC2OC2C1 (stereo not drawn)
ANSWER LABEL: inactive
--
MOLECULE: CC(=O)Nc1ccc2c(c1)Cc1cc(NC(C)=O)ccc1-2
ANSWER LABEL: inactive
--
MOLECULE: CCOC(=O)NNc1nncc2ccccc12
ANSWER LABEL: inactive
--
MOLECULE: CC(C)C1=CC2=CC[C@@H]3[C@](C)(CCC[C@@]3(C)C(=O)O)[C@H]2CC1
ANSWER LABEL: active
--
MOLECULE: O=C(Oc1ccccc1)c1ccc2ccccc2c1O
ANSWER LABEL: inactive
--
MOLECULE: OCCN(CCO)c1ccccc1
ANSWER LABEL: inactive
--
MOLECULE: c1ccc(CNCc2ccccc2)cc1
ANSWER LABEL: inactive
--
MOLECULE: Cc1ccc2oc(=O)ccc2c1
ANSWER LABEL: inactive
--
MOLECULE: CN1C(=O)N(C)C(O)C1O (stereo not drawn)
ANSWER LABEL: inactive
--
MOLECULE: CCCCCCCCCCOC(C)=O
ANSWER LABEL: inactive
--
MOLECULE: O=C1CCCCCCCCCCC(=O)OCCO1
ANSWER LABEL: inactive
--
MOLECULE: CC=CCO
ANSWER LABEL: inactive
--
MOLECULE: CC(C)(C)C(=O)C=Cc1ccc(Cl)cc1
ANSWER LABEL: inactive
--
MOLECULE: CCCCCCCOC(=O)CCC
ANSWER LABEL: inactive
--
MOLECULE: C=C(C)C(=O)OCCO
ANSWER LABEL: inactive
--
MOLECULE: COC(=O)/C=C/C(C)=C\C=C\C(C)=C\C=C\C=C(C)\C=C\C=C(C)\C=C\C(=O)O
ANSWER LABEL: inactive
--
MOLECULE: CC=CC(F)(F)C(F)(F)C(F)(F)F
ANSWER LABEL: inactive
--
MOLECULE: C(=CC=Nc1ccccc1)C=CNc1ccccc1
ANSWER LABEL: inactive
--
MOLECULE: CC1(C)O[C@@H]2C[C@H]3[C@@H]4C[C@H](F)C5=CC(=O)CC[C@]5(C)[C@H]4[C@@H](O)C[C@]3(C)[C@]2(C(=O)CO)O1
ANSWER LABEL: inactive
--
MOLECULE: CC(C)=CCCC(C)C=O (stereo not drawn)
ANSWER LABEL: inactive
--
MOLECULE: CCc1ccc2c(c1)C(=O)c1ccccc1C2=O
ANSWER LABEL: inactive
--
MOLECULE: CCCCCCC1(C)CCC(=O)O1 (stereo not drawn)
ANSWER LABEL: inactive
--
MOLECULE: NC(CO)(CO)CO
ANSWER LABEL: inactive
--
MOLECULE: Nc1cccc(C(F)(F)F)c1
ANSWER LABEL: inactive
--
MOLECULE: Cn1c([N+](=O)[O-])cnc1COC(N)=O
ANSWER LABEL: inactive
--
MOLECULE: SCCc1cnccn1
ANSWER LABEL: active
--
MOLECULE: COc1ccc([C@@H]2CC(=O)c3c(O)cc(O[C@@H]4O[C@H](CO[C@@H]5O[C@@H](C)[C@H](O)[C@@H](O)[C@H]5O)[C@@H](O)[C@H](O)[C@H]4O)cc3O2)cc1OC
ANSWER LABEL: inactive
--
MOLECULE: CCO[Si](C)(OCC)OCC
ANSWER LABEL: inactive
--
MOLECULE: CC(C)c1ccc(C=O)cc1
ANSWER LABEL: inactive
--
MOLECULE: CC(C)c1ccc2c(C(C)C)cc(C(C)C)c(S(=O)(=O)O)c2c1
ANSWER LABEL: inactive
--
MOLECULE: O=C(O)C(c1ccc(Cl)cc1)c1ccc(Cl)cc1
ANSWER LABEL: inactive
--
MOLECULE: O=C(O)c1ccccc1Nc1cccc(C(F)(F)F)c1
ANSWER LABEL: inactive
--
MOLECULE: CCCCCCCC(C)=O
ANSWER LABEL: inactive
--
MOLECULE: CC(=O)OCc1ccco1
ANSWER LABEL: inactive
--
MOLECULE: CC(C)CCCCCOC(=O)CCS
ANSWER LABEL: inactive
--
MOLECULE: CCCCCCCCCCCCCCCC(=O)OCC
ANSWER LABEL: inactive
--
MOLECULE: O=C(C(Cl)Cl)N1CCOC12CCCCC2
ANSWER LABEL: inactive
--
MOLECULE: Cc1oncc1C(=O)Nc1ccc(C(F)(F)F)cc1
ANSWER LABEL: inactive
--
MOLECULE: Clc1nc2ccccc2s1
ANSWER LABEL: inactive
--
MOLECULE: CCOC(F)(F)C(F)(F)C(F)(F)C(F)(F)F
ANSWER LABEL: inactive
--
MOLECULE: Cn1c(=O)[nH]c2ncn(C)c2c1=O
ANSWER LABEL: inactive
--
MOLECULE: Nc1ccc(N=Nc2ccccc2)c(N)n1
ANSWER LABEL: inactive
--
MOLECULE: CCC(CO)CO
ANSWER LABEL: inactive
--
MOLECULE: C=C1C2CCC(C2)C1(C)C (stereo not drawn)
ANSWER LABEL: inactive
--
MOLECULE: Cc1cnc(NC(=O)C2=C(O)c3ccccc3S(=O)(=O)N2C)s1
ANSWER LABEL: inactive
--
MOLECULE: O=C1CCCCCN1SSN1CCCCCC1=O
ANSWER LABEL: inactive
